Test: self-splicing fitness, log relative to wild type (ln ratio); higher = more splicing; Tetrahymena group I intron in knt gene, E. coli kanamycin selection, DiMSum; sequences stand for … in CUCUCU…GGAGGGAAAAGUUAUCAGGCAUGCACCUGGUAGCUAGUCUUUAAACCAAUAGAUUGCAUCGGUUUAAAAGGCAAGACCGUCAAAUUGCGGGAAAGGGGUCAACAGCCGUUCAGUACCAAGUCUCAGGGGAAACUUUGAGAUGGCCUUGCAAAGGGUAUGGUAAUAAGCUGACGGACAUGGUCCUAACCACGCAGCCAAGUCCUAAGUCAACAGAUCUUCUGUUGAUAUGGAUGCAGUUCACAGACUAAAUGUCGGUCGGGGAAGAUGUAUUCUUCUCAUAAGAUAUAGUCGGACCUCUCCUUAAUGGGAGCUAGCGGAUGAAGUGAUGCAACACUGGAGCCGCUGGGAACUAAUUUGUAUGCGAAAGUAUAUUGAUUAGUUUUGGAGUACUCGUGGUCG;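 also: selection with 25 µg/mL kanamycin versus none on LB agar overnight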
Conditions: 30 °C
reportedEndpoint: self-splicing fitness (ln)

> print(dat)
       constructsequence            reportedendpoint  obsvalue
 1  AGGAAGCAAUAUUACGUUUC  self-splicing fitness (ln)     -3.65
 2  ACCAAGCAAUAUUACGUCUG  self-splicing fitness (ln)     -2.55
 3  CGCUAGCAAUAUUACGAGCA  self-splicing fitness (ln)     -0.28
 4  AGCGAGCAAUAUUACGGGCA  self-splicing fitness (ln)     -0.63
 5  UAGAAGCAAUAUUACGUAUU  self-splicing fitness (ln)      -2.3
 6  CCGAAGCAAUAUUACGGUGU  self-splicing fitness (ln)     -3.91
 7  ACAAAGCAAUAUUACGCUUU  self-splicing fitness (ln)     -3.64
 8  ACAGAGCAAUAUUACGCCAC  self-splicing fitness (ln)     -2.45
 9  UCGUAGCAAUAUUACGGUUC  self-splicing fitness (ln)     -3.12
10  CCCCAGCAAUAUUACGUUUC  self-splicing fitness (ln)     -4.32
11  UGUUAGCAAUAUUACGUGCC  self-splicing fitness (ln)     -2.05
12  UACCAGCAAUAUUACGUGUG  self-splicing fitness (ln)     -1.22
13  ACCUAGCAAUAUUACGGUUA  self-splicing fitness (ln)     -2.38
14  UUAGAGCAAUAUUACGUCAG  self-splicing fitness (ln)     -1.02
15  CAUCAGCAAUAUUACGACGG  self-splicing fitness (ln)    -0.186
16  CGGUAGCAAUAUUACGGAAG  self-splicing fitness (ln)    -0.936
17  UUCCAGCAAUAUUACGCGUG  self-splicing fitness (ln)     -1.43
18  GUAAAGCAAUAUUACGGCAA  self-splicing fitness (ln)   -0.0595
19  CCCAAGCAAUAUUACGUUAG  self-splicing fitness (ln)     -4.82
20  UACAAGCAAUAUUACGCAGG  self-splicing fitness (ln)     -2.78
21  CGGAAGCAAUAUUACGUGCA  self-splicing fitness (ln)     -3.23
22  AAGUAGCAAUAUUACGCAGA  self-splicing fitness (ln)     -4.11
23  CAUAAGCAAUAUUACGAUAA  self-splicing fitness (ln)     -4.17
24  CCACAGCAAUAUUACGUUUG  self-splicing fitness (ln)      -1.7
25  UAAGAGCAAUAUUACGGCAG  self-splicing fitness (ln)     -3.03
26  UGGUAGCAAUAUUACGUGCC  self-splicing fitness (ln)     -1.42
27  GAUCAGCAAUAUUACGCAGG  self-splicing fitness (ln)      -3.3
28  CAAAAGCAAUAUUACGAAGA  self-splicing fitness (ln)     -2.23
29  AGAUAGCAAUAUUACGGACC  self-splicing fitness (ln)    -0.504
30  CGUAAGCAAUAUUACGACUU  self-splicing fitness (ln)     -3.09
31  AUGAAGCAAUAUUACGGUGG  self-splicing fitness (ln)     -1.87
32  AUAUAGCAAUAUUACGGCUG  self-splicing fitness (ln)    -0.816
33  CUUGAGCAAUAUUACGCUGC  self-splicing fitness (ln)     -2.39
34  UGCUAGCAAUAUUACGUCUG  self-splicing fitness (ln)    -0.586
35  GACGAGCAAUAUUACGGGCA  self-splicing fitness (ln)     -1.58
36  CACGAGCAAUAUUACGGGAC  self-splicing fitness (ln)     -3.36
37  UGGGAGCAAUAUUACGCUUG  self-splicing fitness (ln)     -1.62
38  ACUAAGCAAUAUUACGUUCA  self-splicing fitness (ln)     -1.29
39  UUGAAGCAAUAUUACGUCAC  self-splicing fitness (ln)     -3.27
40  ACCCAGCAAUAUUACGAAGU  self-splicing fitness (ln)    -0.678
41  UACCAGCAAUAUUACGAAUG  self-splicing fitness (ln)    -0.839
42  UUCGAGCAAUAUUACGCCUA  self-splicing fitness (ln)     -1.67
43  GUCCAGCAAUAUUACGGGUC  self-splicing fitness (ln)     -1.73
44  UCGUAGCAAUAUUACGACCU  self-splicing fitness (ln)     -2.89
45  AGCCAGCAAUAUUACGGUAA  self-splicing fitness (ln)     -1.23
46  UCAAAGCAAUAUUACGUGGA  self-splicing fitness (ln)     -1.49
47  UUACAGCAAUAUUACGUCAU  self-splicing fitness (ln)     -3.77
48  CGAGAGCAAUAUUACGCAUU  self-splicing fitness (ln)     -2.84
49  UGCGAGCAAUAUUACGCCUG  self-splicing fitness (ln)     -3.98
50  CAUGAGCAAUAUUACGGACG  self-splicing fitness (ln)    -0.912
51  CUUCAGCAAUAUUACGGAUG  self-splicing fitness (ln)     -1.48
52  CCUAAGCAAUAUUACGGACC  self-splicing fitness (ln)     -3.02
53  GGAUAGCAAUAUUACGUUAU  self-splicing fitness (ln)     -4.06
54  CAACAGCAAUAUUACGAAAG  self-splicing fitness (ln)    -0.908
55  UAACAGCAAUAUUACGGCUG  self-splicing fitness (ln)     -2.55
56  UCCUAGCAAUAUUACGCCGU  self-splicing fitness (ln)     -1.83
57  AACAAGCAAUAUUACGGAUA  self-splicing fitness (ln)     -3.95
58  UGGGAGCAAUAUUACGCCGA  self-splicing fitness (ln)    -0.637
59  CCAAAGCAAUAUUACGGUUA  self-splicing fitness (ln)     -2.46
60  AAUCAGCAAUAUUACGUUGA  self-splicing fitness (ln)    -0.828
61  UAGAAGCAAUAUUACGCUAG  self-splicing fitness (ln)     -1.18
62  UGACAGCAAUAUUACGCUCA  self-splicing fitness (ln)    -0.115
63  CUAUAGCAAUAUUACGUUUA  self-splicing fitness (ln)      -3.4
64  AGCUAGCAAUAUUACGGAUU  self-splicing fitness (ln)      -1.3
65  GCAUAGCAAUAUUACGUUCG  self-splicing fitness (ln)     -1.43
66  CAGCAGCAAUAUUACGUGAA  self-splicing fitness (ln)     -2.06
67  GUGAAGCAAUAUUACGGACA  self-splicing fitness (ln)     0.209
